test system: microorganisms; test: Morphology, biofilm and growth disruption by peptides (Table 5); type: cell-based; set-up: key: A: Peptide aggregates; B: Less hyphal formation; Clumps; Diffuse clumps and small polyps; F: Diffuse growth; H: Thin; I: Growth inhibition; Microcolony formation; Rippled; Small polyps; Thick; W: Halo formation on top, microlonies on bottom; conditions: C. jeikeium

{"columns": ["substance", "Organism, effect"],
 "data": [
  ["PF-135 (PPARPARIPQTPTLHGASLFRQRS; Peptide with targeting and/or antimicrobial activity)", "C. jeikeium (R)"],
  ["PF-139 (ALSKPAIQARTLCRRQDPP; Peptide with targeting and/or antimicrobial activity)", "C. jeikeium (R)"],
  ["PF-186 (DADKNLSLERDRFAWRVAAP; Peptide with targeting and/or antimicrobial activity)", "C. jeikeium (A)"],
  ["PF-004 (chain 1 ARLSKAIIIAVIVVYHLDVRGLF; chain 2 ARLSKAIIIAVIVVYHLDVRGLF; Peptide with targeting and/or antimicrobial activity)", "C. jeikeium (A)"]
]}
